Biological target: human AspH (His6-AspH315–758) (Homo sapiens, UniProt Q12797)
Construct: N-Terminally His6-tagged human AspH315–758 (His6-AspH315–758) was produced in Escherichia coli BL21 (DE3) cells; made in house; host or cells: Escherichia coli BL21 (DE3), pET-28a(+) vector
Test: SPE-MS AspH inhibition assay (hFX-CP101-119 substrate hydroxylation)
Type: biochemical
Conditions: AspH-inhibitor screening, 384-well Plate 1, substrate conversion
Structures can show the parent of a compound that is named as a salt.
Recorded Plate 1 (% conversion) for the following compounds
Just the number in %, nothing appended.

- COc1ccc(Cl)c(Nc2nc3ccccc3nc2NS(=O)(=O)c2cccc(NC(=O)C(C)(C)N)c2)c1: 47.92
- CN(C)CCOc1ccc(/C(=C(/CCCl)c2ccccc2)c2ccccc2)cc1 [Toremifene citrate]: 15.06
- CN(Cc1cnc2nc(N)nc(N)c2n1)c1ccc(C(=O)N[C@@H](CCC(=O)O)C(=O)O)cc1 [Abitrexate/Methotrexate]: 45.75
- CC(C)(C)Cn1c(N)nc2ccc(-c3[nH]c(C(C)(C)C)nc3-c3ccc(F)cc3)nc21: 55.93
- CS(=O)(=O)OCCCCOS(C)(=O)=O: 43.00

Tell me the measured Plate 1 (% conversion) of O=C(c1cc(Cc2n[nH]c(=O)c3ccccc23)ccc1F)N1CCN(C(=O)C2CC2)CC1 , please.
42.70

Tell me the measured Plate 1 (% conversion) of CCCCC(=O)OCC(=O)[C@]1(O)Cc2c(O)c3c(c(O)c2[C@@H](O[C@H]2C[C@H](NC(=O)C(F)(F)F)[C@H](O)[C@H](C)O2)C1)C(=O)c1c(OC)cccc1C3=O , please.
50.79

---

Target: human AspH (His6-AspH315–758) (Homo sapiens)
Construct: N-Terminally His6-tagged human AspH315–758 (His6-AspH315–758) was produced in Escherichia coli BL21 (DE3) cells; made in house; host or cells: Escherichia coli BL21 (DE3), pET-28a(+) vector
Sequence (Q12797 315-758): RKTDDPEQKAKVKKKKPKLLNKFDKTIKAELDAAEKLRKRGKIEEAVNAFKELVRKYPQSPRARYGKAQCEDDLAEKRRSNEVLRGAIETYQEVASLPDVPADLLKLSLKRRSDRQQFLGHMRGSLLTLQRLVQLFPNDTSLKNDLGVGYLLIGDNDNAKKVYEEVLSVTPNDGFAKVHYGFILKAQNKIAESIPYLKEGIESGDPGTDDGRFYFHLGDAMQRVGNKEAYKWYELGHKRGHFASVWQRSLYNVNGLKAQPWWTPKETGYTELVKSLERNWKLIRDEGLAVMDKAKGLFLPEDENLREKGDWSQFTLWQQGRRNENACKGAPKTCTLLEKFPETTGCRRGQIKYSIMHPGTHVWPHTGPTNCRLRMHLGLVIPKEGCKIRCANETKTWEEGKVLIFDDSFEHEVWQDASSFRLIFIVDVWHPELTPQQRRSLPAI
Assay: SPE-MS AspH inhibition assay (hFX-CP101-119 substrate hydroxylation)
Assay type: biochemical
Conditions: AspH-inhibitor screening, 384-well Plate 1
Recorded Plate 1 (% inhibition) for the following compounds
Just the number in %, nothing appended.

Below: 8 compounds and their reported Plate 1 (% inhibition).
• Cc1ccc(F)c(NC(=O)Nc2ccc(-c3cccc4[nH]nc(N)c34)cc2)c1 = 24.64
• Oc1ncnc2[nH]ncc12 = -0.61
• CC(=O)OC[C@H]1O[C@@H](n2ccc(=O)[nH]c2=O)[C@H](OC(C)=O)[C@@H]1OC(C)=O [Uridine triacetate] = 4.05
• C=CC(=O)Nc1cc(Nc2nccc(-c3cn(C)c4ccccc34)n2)c(OC)cc1N(C)CCN(C)C = 34.01
• Cl.N[C@@H](Cc1ccc(N(CCCl)CCCl)cc1)C(=O)O [Melphalan hydrochloride] = 8.23
• O=C(CCCCCCC(=O)Nc1ccc([C@H]2O[C@@H](CSc3nc(-c4ccccc4)c(-c4ccccc4)o3)C[C@@H](c3ccc(CO)cc3)O2)cc1)NO [Tubacin, reference compound] = 92.77
• CN(c1ccccc1CNc1nc(Nc2ccc3c(c2)CC(=O)N3)ncc1C(F)(F)F)S(C)(=O)=O = 1.90
• COCCn1c2c([n+](Cc3cnccn3)c1C)C(=O)c1ccccc1C2=O = -27.18

Tell me the measured Plate 1 (% inhibition) of c1cc(CN2CCCNCCNCCCNCC2)ccc1CN1CCCNCCNCCCNCC1 , please.
9.96

---

Target: human AspH (His6-AspH315–758) (Homo sapiens, UniProt Q12797)
Construct: N-Terminally His6-tagged human AspH315–758 (His6-AspH315–758) was produced in Escherichia coli BL21 (DE3) cells; made in house; host or cells: Escherichia coli BL21 (DE3), pET-28a(+) vector
Assay: SPE-MS AspH inhibition assay (hFX-CP101-119 substrate hydroxylation)
Assay type: biochemical
Conditions: AspH-inhibitor screening, 384-well Plate 1, substrate conversion
Where a name gives a salt, the structure may show the parent alone.
Each entry gets no (0) if its Plate 1 (% conversion) stays under 50%, and yes (1) if its Plate 1 (% conversion) is 50% or above.

- CC(C)C[C@H](NC(=O)[C@@H](COC(C)(C)C)NC(=O)[C@H](Cc1ccc(O)cc1)NC(=O)[C@H](CO)NC(=O)[C@H](Cc1c[nH]c2ccccc12)NC(=O)[C@H](Cc1cnc[nH]1)NC(=O)[C@@H]1CCC(=O)N1)C(=O)N[C@@H](CCCNC(=N)N)C(=O)N1CCC[C@H]1C(=O)NNC(N)=O [Goserelin acetate]: yes (1)
- O=C1c2c(O)ccc(O)c2C(=O)c2c(NCCNCCO)ccc(NCCNCCO)c21 [Mitoxantrone]: yes (1)
- Nc1nccc(-c2c(-c3ccc(F)cc3)ncn2C2CCCCC2)n1 [PF670462]: no (0)
- Cl.NC(=O)Nc1cc(-c2cccc(F)c2)sc1C(=O)N[C@H]1CCCNC1 [AZD 7762 hydrochloride]: no (0)
- CC[C@]1(O)C[C@H]2CN(CCc3c([nH]c4ccccc34)[C@@](C(=O)OC)(c3cc4c(cc3OC)N(C=O)[C@H]3[C@@](O)(C(=O)OC)[C@H](OC(C)=O)[C@]5(CC)C=CCN6CC[C@]43[C@@H]65)C2)C1.O=S(=O)(O)O [Vincristine Sulfate (Oncovin)]: no (0)

Reported Plate 1 (% conversion) reaches at least 50% for CC/C(=C(\c1ccccc1)c1ccc(OCCN(C)C)cc1)c1ccccc1 [Tamoxifen citrate] ?
no (0)

Reported Plate 1 (% conversion) reaches at least 50% for CCCS(=O)(=O)Nc1ccc(F)c(C(=O)c2c[nH]c3ncc(-c4ccc(Cl)cc4)cc23)c1F [PLX4032_Vemurafenib] ?
no (0)

Reported Plate 1 (% conversion) reaches at least 50% for Cc1ccc(F)c(NC(=O)Nc2ccc(-c3cccc4[nH]nc(N)c34)cc2)c1 [ABT-869_Linifanib] ?
no (0)

Reported Plate 1 (% conversion) reaches at least 50% for O=C(Nc1ccncc1)C(=O)c1cn(Cc2ccc(Cl)cc2)c2ccccc12 [Indibulin] ?
no (0)

Reported Plate 1 (% conversion) reaches at least 50% for Nc1cccc2c1CN(C1CCC(=O)NC1=O)C2=O (stereo not drawn) [Lenalidomide] ?
no (0)

Reported Plate 1 (% conversion) reaches at least 50% for Nc1ccccc1NC(=O)c1ccc(CNC(=O)OCc2cccnc2)cc1 [Entinostat] ?
yes (1)

Reported Plate 1 (% conversion) reaches at least 50% for C=CCNC1=C2C[C@@H](C)C[C@H](OC)[C@H](O)[C@@H](C)/C=C(\C)[C@H](OC(N)=O)[C@@H](OC)/C=C\C=C(/C)C(=O)NC(=CC1=O)C2=O [17-AAG (Tanespimycin, Geldanamycin)] ?
yes (1)

---

Recorded Plate 1 (% inhibition) for the following compounds
Target: human AspH (His6-AspH315–758) (Homo sapiens)
Construct: N-Terminally His6-tagged human AspH315–758 (His6-AspH315–758) was produced in Escherichia coli BL21 (DE3) cells; made in house; host or cells: Escherichia coli BL21 (DE3), pET-28a(+) vector
Sequence (Q12797 315-758): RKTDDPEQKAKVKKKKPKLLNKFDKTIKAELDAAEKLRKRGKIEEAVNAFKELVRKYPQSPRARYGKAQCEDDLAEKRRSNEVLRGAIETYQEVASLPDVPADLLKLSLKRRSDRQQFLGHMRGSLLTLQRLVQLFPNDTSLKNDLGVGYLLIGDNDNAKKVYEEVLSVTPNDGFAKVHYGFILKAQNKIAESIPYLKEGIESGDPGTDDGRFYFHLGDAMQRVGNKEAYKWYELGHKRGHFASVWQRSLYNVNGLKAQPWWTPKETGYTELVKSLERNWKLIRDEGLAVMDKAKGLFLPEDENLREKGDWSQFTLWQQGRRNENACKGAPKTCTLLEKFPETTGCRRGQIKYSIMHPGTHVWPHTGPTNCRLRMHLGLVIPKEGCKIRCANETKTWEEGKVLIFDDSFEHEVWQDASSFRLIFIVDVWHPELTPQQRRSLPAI
Assay: SPE-MS AspH inhibition assay (hFX-CP101-119 substrate hydroxylation)
Type: biochemical
Conditions: AspH-inhibitor screening, 384-well Plate 1
Just the number in %, nothing appended.

Identify the measured Plate 1 (% inhibition) of CCNC(=O)CCC/C=C\C[C@@H]1[C@@H](/C=C/[C@@H](O)CCc2ccccc2)[C@H](O)C[C@@H]1O for human AspH (His6-AspH315–758) (Homo sapiens).
-1.86

Identify the measured Plate 1 (% inhibition) of OC[C@H]1O[C@@H](n2cnc3c2NC=NC[C@H]3O)C[C@@H]1O for human AspH (His6-AspH315–758) (Homo sapiens).
10.69

Identify the measured Plate 1 (% inhibition) of CC1(C)CNc2cc(NC(=O)c3cccnc3NCc3ccncc3)ccc21.O=P(O)(O)O.O=P(O)(O)O [Motesanib Diphosphate (AMG-706)] for human AspH (His6-AspH315–758) (Homo sapiens).
35.35

Identify the measured Plate 1 (% inhibition) of Oc1nc(-c2ccc(C(F)(F)F)cc2)nc2c1CSCC2 for human AspH (His6-AspH315–758) (Homo sapiens).
0.04

Cited source: paper PMC7588595
